- Read-out: Monocyte Chemoattractant Protein-1 (MCP1), CCL2 (gene 6347)
- Method Description: BSK_3C_MCP1: BioMAP Diversity Plus: 3C Assay for Monocyte Chemoattractant Protein-1 (MCP1) Biomarker Activity (AID 2283017)
- Stated Conditions: primary human endothelial cells (HUVEC); actives raise or lower the signal
The source made the active and inactive calls. Rule for the calls: active = hit-call score of the fitted dose curve at least 0.9, where 1 is the maximum; inactive = score below 0.9.
Endpoint Label: AC50

Solved entries:
C=CC(N)=O; inactive
CCCCCCCCCc1ccc(O)cc1; 14.6 µM (active)
O=S(=O)(O)C(F)(F)C(F)(F)C(F)(F)C(F)(F)C(F)(F)C(F)(F)F; inactive
Cc1ccccc1CO[C@@H]1C[C@@]2(C(C)C)CC[C@]1(C)O2; inactive

Batch: AC50 for all items listed.
1. CCCCCCCCOC(=O)c1ccccc1C(=O)OCCCCCCCC
2. CCC(C)c1cc([N+](=O)[O-])cc([N+](=O)[O-])c1O (stereo not given)

Reply |
1: inactive; 2: 9.99 µM (active)

Value sought for every listed compound: AC50.
1. O=C(N[C@H]1CN2CCC1CC2)c1cc2ccoc2cn1
2. CC(C)(O)C(=O)Nc1ccc([N+](=O)[O-])c(C(F)(F)F)c1
3. Cc1cc(O)ccc1Cl

Reply |
1: inactive; 2: inactive; 3: inactive

* * *

- Read-out: UDP glucuronosyltransferase (UGT1A1), UGT1A1 (gene 54658)
- Method Description: LTEA_HepaRG_UGT1A1: Life Technologies and Expression Analysis (LTEA) Assay for UDP glucuronosyltransferase (UGT1A1) using HepaRG (AID 2283538)
- Stated Conditions: mRNA level, 48 h; actives raise or lower the signal
Activity calls are given as the source filed them. Rule for the calls: active = hit-call score of the fitted dose curve at least 0.9, where 1 is the maximum; inactive = score below 0.9.
Write down one outcome, taken from label 1 = active, label 0 = inactive

ClC1=C(Cl)[C@]2(Cl)[C@@H]3[C@@H](Cl)[C@H]4O[C@H]4[C@@H]3C1(Cl)C2(Cl)Cl; label 1
ClC(Cl)=C(c1ccc(Cl)cc1)c1ccc(Cl)cc1; label 1
Cc1cccc(C)c1N; label 0
COS(=O)(=O)OC; label 0
CC#Cc1cc(C)nc(Nc2ccccc2)n1; label 1
Cc1cccc([N+](=O)[O-])c1; label 0
Cc1ccc(O)c(C)c1; label 0
CCOP(=S)(OCC)SCSC(C)(C)C; label 0
O=S(=O)(O)C(F)(F)C(F)(F)C(F)(F)C(F)(F)C(F)(F)C(F)(F)F; label 1
Cc1ccccc1O; label 0

--- query ---
Ask | For this compound, state the assay outcome: Nn1cnnc1
Reply | label 0

* * *

- Read-out: Human Leukocyte Antigen - DR isotype (HLADR), HLA-DRA (gene 3122)
- Method Description: BSK_CASM3C_HLADR: BioMAP Diversity Plus: CASM3C Assay for Human Leukocyte Antigen - DR isotype (HLADR) Biomarker Activity (AID 2283043);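 note: cell-surface HLA-DR protein level quantified by ELISA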
- Stated Conditions: primary human coronary artery smooth muscle cells; actives raise or lower the signal
Activity calls are given as the source filed them. The calls were made as follows: active = hit-call score of the fitted dose curve at least 0.9, where 1 is the maximum; inactive = score below 0.9.
Hi! Could you answer with just one of these? t for active, f for inactive

Worked set:
CC(c1ccc(O)cc1)(c1ccc(O)cc1)c1ccc(O)cc1; t
COc1ccc(O)c(C(C)(C)C)c1; f
CCCCCCCCCc1ccc(O)cc1; t
Clc1ccc(Cl)cc1; f
Nn1cnnc1; f
O=NN(c1ccccc1)c1ccccc1; f

Ask | // outcome(item) with item = CC(C)(c1ccccc1)c1ccc(O)cc1
Reply | t

Ask | // return assay outcome for CCC(C)(c1ccc(O)cc1)c1ccc(O)cc1
Reply | f

Ask | For O=C(O)C(F)(F)C(F)(F)C(F)(F)C(F)(F)C(F)(F)F , what call appears in the results of this test?
Reply | f

Ask | Assay outcome for CCC(C)c1cc([N+](=O)[O-])cc([N+](=O)[O-])c1O (stereo not drawn) : what was it?
Reply | t

Ask | Which outcome was assigned to Cc1cccc(C)c1N in this test?
Reply | f

Ask | What classification did Cc1cccc([N+](=O)[O-])c1 end up with in this test?
Reply | f

Ask | Test call for this compound, please: O=C(O)C(F)(F)C(F)(F)C(F)(F)C(F)(F)C(F)(F)C(F)(F)C(F)(F)C(F)(F)C(F)(F)F
Reply | f

* * *

- Method Description: APR_HepG2_CellCycleArrest_72hr: Apredica 72-hour HepG2 Assay for Cell Cycle Arrest (AID 2282914)
- Stated Conditions: high-content imaging, actives raise or lower the signal
Activity calls are given as the source filed them. Rule for the calls: active = hit-call score of the fitted dose curve at least 0.9, where 1 is the maximum; inactive = score below 0.9.
Assign a class; possible classes are Y (active), N (inactive)

O=C(O)C(F)(F)C(F)(F)C(F)(F)C(F)(F)C(F)(F)C(F)(F)C(F)(F)C(F)(F)F; N

Ask | Recorded call for CC(C)C(=O)OCC(C)(C)C(OC(=O)C(C)C)C(C)C (stereo unspecified) ?
Reply | N

Ask | Tell me the recorded outcome of this test for CCOP(=S)(OCC)SCSC(C)(C)C .
Reply | N

Ask | How was CCCCCCCCCc1ccc(O)cc1 classified in this test?
Reply | N

Ask | Short answer needed: outcome of this test for Oc1ccc(C(c2ccc(O)cc2)(C(F)(F)F)C(F)(F)F)cc1 ?
Reply | N

Ask | Hi, sorry to bother you, what did the test record for CCC(=O)O[C@H]1CC[C@H]2[C@@H]3CCC4=CC(=O)CC[C@]4(C)[C@H]3CC[C@]12C ?
Reply | N

Ask | For COS(=O)(=O)OC , which call appears in the assay record?
Reply | N

Ask | Could you please tell me the result logged for CC(c1ccc(O)cc1)(c1ccc(O)cc1)c1ccc(O)cc1 in this assay?
Reply | N

Ask | Record request — test call for ClC(Cl)=C(c1ccc(Cl)cc1)c1ccc(Cl)cc1
Reply | Y

Ask | I would be grateful if you could indicate the recorded call for Clc1ccc(C(Cl)(Cl)Cl)cc1 .
Reply | N

Ask | Answer briefly: the call reported for CCCCCCCCOC(=O)c1ccccc1C(=O)OCCCCCCCC in this assay.
Reply | N

Ask | Any idea what this test logged for O=C(NC(=O)c1c(F)cccc1F)Nc1cc(Cl)c(OC(F)(F)C(F)F)c(Cl)c1 ?
Reply | N

Ask | Give the logged outcome of this assay for the following molecule: CCC(C)c1cc([N+](=O)[O-])cc([N+](=O)[O-])c1O (stereo unspecified)
Reply | Y

Ask | How was NS(=O)(=O)C(F)(F)C(F)(F)C(F)(F)C(F)(F)C(F)(F)C(F)(F)C(F)(F)C(F)(F)F classified in this test?
Reply | Y

Ask | What did this assay record as the result for Cc1cccc([N+](=O)[O-])c1 ?
Reply | N

Ask | Look up the recorded call for Cc1ccc(O)c(C)c1 in this test.
Reply | N

Ask | Give the logged outcome of this assay for the following molecule: C[C@]12CCC(=O)C=C1CC[C@@H]1[C@@H]2CC[C@]2(C)C(=O)CC[C@@H]12
Reply | N

Ask | I'd appreciate the recorded outcome for Cc1ccccc1CO[C@@H]1C[C@@]2(C(C)C)CC[C@]1(C)O2 from this test.
Reply | N

* * *

- Method Description: CCTE_Deisenroth_AIME_384WELL_CTox_Active: Cytotoxicity Assessment (CTOX) in CCTE's 384-well Estrogen Receptor Transactivation Assay with AIME metabolic competence (metabolism positive), Deisenroth Lab (AID 2284037);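 note: chemicals first conditioned 2 h by alginate-bound induced rat liver S9 before cells; activity means signal loss indicating cell death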
Results filed as inconclusive are left out. The source made the active and inactive calls. Rule for the calls: active = hit-call score of the fitted dose curve at least 0.9, where 1 is the maximum; inconclusive = response in the unintended direction; inactive = score below 0.9.
The reply should be one of these categories: active, inactive

Completed entries (count: 5):
CN(C)CCO; inactive
C[C@]12CCC(=O)C=C1CC[C@@H]1[C@@H]2CC[C@]2(C)C(=O)CC[C@@H]12; inactive
CCCN(CCC)N=O; inactive
OCC(O)CO; inactive
CCC(C)(c1ccc(O)cc1)c1ccc(O)cc1; active

Ask | For C=CC(=O)NCNC(=O)C=C , which call appears in the assay record?
Reply | inactive

Ask | Record lookup: outcome of this test for O=C(N[C@H]1CN2CCC1CC2)c1cc2ccoc2cn1 ?
Reply | inactive

Ask | Tell me the recorded outcome of this test for O=C(O)C(F)(F)C(F)(F)C(F)(F)C(F)(F)C(F)(F)C(F)(F)C(F)(F)C(F)(F)F .
Reply | active

Ask | Assay result, entry Clc1ccc(C(Cl)(Cl)Cl)cc1 — outcome?
Reply | inactive

* * *

- Read-out: succinate dehydrogenase complex iron sulfur subunit B (SDHB), SDHB (gene 6390)
- Method Description: LTEA_HepaRG_SDHB: Life Technologies and Expression Analysis (LTEA) Assay for succinate dehydrogenase complex iron sulfur subunit B (SDHB) using HepaRG (AID 2283528)
- Stated Conditions: mRNA level, 48 h; actives raise or lower the signal
Calls of active or inactive are those of the source. Rule for the calls: active = hit-call score of the fitted dose curve at least 0.9, where 1 is the maximum; inactive = score below 0.9.
One label from this list, please: active, inactive

Previously resolved entries follow.
CCC(C)c1cc([N+](=O)[O-])cc([N+](=O)[O-])c1O (configuration not stated); active
CCC(=O)O[C@H]1CC[C@H]2[C@@H]3CCC4=CC(=O)CC[C@]4(C)[C@H]3CC[C@]12C; inactive
C=CC(N)=O; inactive
Cc1ccccc1[N+](=O)[O-]; inactive
O=C(NC(=O)c1cc(F)c(F)cc1Cl)Nc1cc(F)ccc1N1CCC(C(=O)O)CC1; inactive
CCCN(CCC)N=O; inactive

API: the following record is the query input.
Ask | What did this assay record as the result for Cc1ccccc1CO[C@@H]1C[C@@]2(C(C)C)CC[C@]1(C)O2 ?
Reply | inactive

All values here come from PubChem BioAssay (EPA / NIEHS).
